- TARGET DESC: human OX2R (Homo sapiens)
- Construct: expressed in transfected cells; host or cells: CHO (Chinese hamster ovary) cells, line CHOOX2R, co-expressing NFAT-luciferase
- ASSAY OVERVIEW: Agonist activity against OX2R: intracellular calcium (Fura-2AM, FDSS7000) in CHOOX2R cells
- Format: cell-based
- MEASUREMENT CONTEXT: test compound 0.1 μM; relative to orexin-A as full agonist (100%)
Assign class by Response (%) OX2R: not lower than 20% means Condition met; lower than 20% means Condition not met.

- MOLECULE: "Cc1ccc(-c2cccc(C(=O)N(C)C)c2)cc1S(=O)(=O)Nc1cccc(NC(=O)Nc2cccc(N(C)C)c2)c1 [Example 117]"
  DISCRETE LABEL: "Condition not met"
- MOLECULE: "COc1ccc(C(=O)NCc2cccnc2)cc1S(=O)(=O)Nc1cccc(NC(=O)Nc2cccc(N(C)C)c2)c1 [Example 103]"
  DISCRETE LABEL: "Condition not met"

I'd appreciate it if you could say whether COc1ccc(-c2cccc(C(=O)N(C)C)c2)cc1S(=O)(=O)Nc1cccc(N2CCN(c3ccccc3)C2=O)c1 [Example 128] has Response (%) OX2R at least equal to 20%.
Condition not met

hey, is Response (%) OX2R for this one >= 20%? COc1ccc(-c2cccc(C(=O)N(C)C)c2)cc1S(=O)(=O)Nc1cccc(N2CCN(c3ccccc3N(C)C)C2=O)c1 [Example 129]
Condition met

Assess whether reported Response (%) OX2R for COc1ccc(-c2cccc(C(=O)N(C)C)c2)cc1S(=O)(=O)Nc1cccc(N(C)C)c1 [Example 96] sits at 20% or higher.
Condition not met

###

- TARGET DESC: human OX2R (Homo sapiens, UniProt O43614)
- Construct: expressed in transfected cells; host or cells: CHO (Chinese hamster ovary) cells, line CHOOX2R, co-expressing NFAT-luciferase
- Sequence (O43614 whole entry): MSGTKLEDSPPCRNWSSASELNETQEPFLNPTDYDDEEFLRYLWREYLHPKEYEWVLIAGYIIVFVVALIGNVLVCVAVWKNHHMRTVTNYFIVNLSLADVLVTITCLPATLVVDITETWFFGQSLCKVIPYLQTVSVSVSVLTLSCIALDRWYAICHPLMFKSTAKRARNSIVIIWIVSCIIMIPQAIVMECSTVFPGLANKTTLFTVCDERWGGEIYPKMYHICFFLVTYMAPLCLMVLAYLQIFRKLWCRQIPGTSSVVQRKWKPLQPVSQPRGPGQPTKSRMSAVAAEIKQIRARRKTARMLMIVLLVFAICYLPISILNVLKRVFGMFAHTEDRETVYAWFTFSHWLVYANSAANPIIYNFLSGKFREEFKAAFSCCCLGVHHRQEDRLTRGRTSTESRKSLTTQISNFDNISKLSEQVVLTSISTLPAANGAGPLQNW
- ASSAY OVERVIEW: Agonist activity against OX2R: intracellular calcium (Fura-2AM, FDSS7000) in CHOOX2R cells
- Format: cell-based
- MEASUREMENT CONTEXT: 0.1 μM test compound; relative to orexin-A as full agonist (100%)
Reported Response (%) OX2R values for the following molecules.
The response must be a number in % with no trailing unit.

Here's what some known entries look like.
- MOLECULE: "COc1ccc(Nc2cccc(NS(=O)(=O)c3cc(-c4cccc(C(=O)N(C)C)c4)ccc3OC)c2)cc1OC"
  MEASUREMENT TYPE: "Response (%) OX2R"
  EXPERIMENTAL VALUE: 37
- MOLECULE: "COc1ccc(-c2cccc(C(=O)N(C)C)c2)cc1S(=O)(=O)Nc1cccc(NC(=O)C[S+]([O-])C(c2ccccc2)c2ccccc2)c1 (stereo not shown)"
  MEASUREMENT TYPE: "Response (%) OX2R"
  EXPERIMENTAL VALUE: 11

Requested read-out: Response (%) OX2R. Entry: COc1ccc(-c2cccc(C(=O)N(C)C)c2)cc1S(=O)(=O)Nc1cccc(NC(=O)c2cccc(N(C)C)c2)c1
8

###

Response (%) OX1R overview
- TARGET DESC: human OX1R (Homo sapiens)
- Construct: expressed in transfected cells; host or cells: CHO (Chinese hamster ovary) cells, line CHOOX1R, co-expressing NFAT-luciferase
- Sequence (O43613 whole entry): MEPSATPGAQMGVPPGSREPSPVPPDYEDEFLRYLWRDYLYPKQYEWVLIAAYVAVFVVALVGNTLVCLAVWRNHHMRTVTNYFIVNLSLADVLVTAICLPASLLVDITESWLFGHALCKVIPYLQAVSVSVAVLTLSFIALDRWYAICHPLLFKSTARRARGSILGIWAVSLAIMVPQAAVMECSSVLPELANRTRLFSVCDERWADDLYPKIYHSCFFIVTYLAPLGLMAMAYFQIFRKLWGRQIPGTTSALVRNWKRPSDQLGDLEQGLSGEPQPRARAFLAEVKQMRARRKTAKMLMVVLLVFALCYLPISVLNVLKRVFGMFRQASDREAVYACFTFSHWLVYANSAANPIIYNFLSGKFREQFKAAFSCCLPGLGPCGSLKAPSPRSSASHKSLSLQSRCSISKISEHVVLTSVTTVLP
- ASSAY OVERVIEW: Agonist activity against OX1R: intracellular calcium (Fura-2AM, FDSS7000) in CHOOX1R cells
- Assay type: cell-based
- MEASUREMENT CONTEXT: test compound 1.0 μM; relative to orexin-A as full agonist (100%)
// note: answer is a bare numeric in %

- COMPOUND: "COc1ccc(-c2cccc(C(=O)N(C)C)c2)cc1S(=O)(=O)Nc1cccc(N=Nc2ccc(O)cc2NC(=O)OC(C)(C)C)c1 [Example 98]"
  Response (%) OX1R: 8
- COMPOUND: "COc1ccc(C(=O)NCCCNC(=O)OC(C)(C)C)cc1S(=O)(=O)Nc1cccc(NC(=O)Nc2cccc(N(C)C)c2)c1 [Example 104]"
  Response (%) OX1R: 6
- COMPOUND: "COc1ccc(-c2cccc(C(=O)N(C)C)c2)cc1S(=O)(=O)Nc1cccc(N2CCN(c3ccccc3N(C)C)C2=O)c1 [Example 129]"
  Response (%) OX1R: 41

Which measured Response (%) OX1R value corresponds to COc1ccc(-c2cccc(C(=O)N(C)C)c2)cc1S(=O)(=O)Nc1cccc(N2CCCN(c3ccc(N(C)C)cc3)C2=O)c1 [Example 135] ?
14

// Response (%) OX1R lookup, key: COc1ccc(C(=O)NCc2cccnc2)cc1S(=O)(=O)Nc1cccc(NC(=O)Nc2ccc(N(C)C)cc2)c1 [Example 109]
9

Entry COc1ccc(-c2cccc(C(=O)N(C)C)c2)cc1S(=O)(=O)Nc1cccc(N)c1 [Example 99] has what Response (%) OX1R?
8

Item under review: COc1ccc(C(=O)NCCNC(=O)OC(C)(C)C)cc1S(=O)(=O)Nc1cccc(NC(=O)Nc2cccc(N(C)C)c2)c1 [Example 105] . Reported Response (%) OX1R?
7
